Exercise: for every item that follows, state its recorded IC50.
System: HeLa (human cervical epithelioid carcinoma) cells
Assay: Cell viability analysis by MTT assay, HeLa
Assay type: cell-based
Conditions: Homo sapiens, HeLa; MTT, 48 h incubation; read-out: Antiproliferative activity, IC50, HeLa

In the examples that follow, each entry is paired with its recorded IC50.
compound	measure_name	result_value
CCCCCCc1cc2cn(C3C=CC(O)C3)c(=O)nc2o1 (stereo not drawn)	IC50	> 100 µM
CCCc1cc2cn(C3C=CC(O)C3)c(=O)nc2[nH]1 (stereo not drawn)	IC50	> 100 µM

# next compound below
In: Specify IC50 for CCCCCc1cc2cn(C3C=CC(O)C3)c(=O)nc2o1 (stereo not drawn) and stop.
Out: > 100 µM
